# SYSTEM: Serotonin 2 (5-HT2) receptor (Homo sapiens, UniProt P41595+P28223+P28335)
# TEST_SUMMARY: Binding affinity towards 5-HT2 receptor using [3H]ketanserin as radioligand
# Assay type: protein assay
PROPERTY: Ki (nM)

Some solved entries appear below for comparison.
item_smiles=C(#Cc1ccccc1)COCCC1CCN(CCc2ccccc2)CC1 result_unit=nM val=21
item_smiles=C(=C\c1ccccc1)/COCC1CCN(CCCc2ccccc2)CC1 result_unit=nM val=283
item_smiles=C(COCC1CCN(Cc2ccccc2)CC1)=C(c1ccccc1)c1ccccc1 result_unit=nM val=29
item_smiles=C(#Cc1ccccc1)COCC1CCN(Cc2ccccc2)CC1 result_unit=nM val=254
item_smiles=Fc1ccc(C#CCOCCC2CCN(CCc3ccccc3)CC2)cc1 result_unit=nM val=81
item_smiles=C(=C\c1ccccc1)/COCC1CCN(CC2CC2)CC1 result_unit=nM val=1847
item_smiles=Fc1ccc(CCN2CCC(CCOCC#Cc3ccccc3)CC2)cc1 result_unit=nM val=85
item_smiles=C(/C=C/c1ccccc1)=C\OCC1CCN(Cc2ccccc2)CC1 result_unit=nM val=547

A = C(#Cc1ccccc1)COCCC1CCN(CC2CC2)CC1
B = C(#Cc1ccccc1)COC1CCN(CCc2ccccc2)CC1
Prompt: // which entry reports the smaller Ki, A or B ? State the label of the item chosen.
Completion: B
(B: 72 nM, A: 947 nM)

---

# ED50 per entry
# TEST_SUMMARY: In vivo potency was determined in anti-mescaline scratch assay(peroral administration)
# Assay type: functional, organism-based

In the examples that follow, each entry is paired with its recorded ED50.
item_smiles=C(=C\c1ccccc1)/COCC1CCN(CC2CC2)CC1 val="> 30 mg/kg"
item_smiles=C(#Cc1ccccc1)COC1CCN(CCc2ccccc2)CC1 val="> 10 mg/kg"
item_smiles=FC(F)(F)c1ccc(/C=C/COCC2CCN(Cc3ccccc3)CC2)cc1 val="> 10 mg/kg"

# ---- query compound ----
Prompt: ED50 lookup needed for C(=C\c1ccccc1)/COCC1CCN(CCc2ccccc2)CC1 , thanks.
Completion: > 5 mg/kg

---

# TEST_SUMMARY: In vivo potency was determined in anti-mescaline scratch assay(peroral administration)
# Assay type: functional, organism-based
PROPERTY: ED50 (mg/kg)

# annotated cases, reported ED50 shown
item_smiles=Fc1ccc(/C=C/COCC2CCN(Cc3ccccc3)CC2)cc1 val=8
item_smiles=C(#Cc1ccccc1)COCCC1CCN(CCc2ccccc2)CC1 val=4.1

I = C(=C\c1ccccc1)/COCC1CCN(Cc2ccccc2)CC1
II = Fc1ccc(CCN2CCC(CCOCC#Cc3ccccc3)CC2)cc1
III = C(=C\c1ccccc1)/COCC1CCN(CCCc2ccccc2)CC1
Prompt: Could you please sort these 3 entries by ED50 from high to low? I'd appreciate it if you listed the labels in the requested order.
Completion: III, I, II
(III: 9 mg/kg, I: 6 mg/kg, II: 3.6 mg/kg)

---

# SYSTEM: D(2) dopamine receptor (Homo sapiens)
# TEST_SUMMARY: Binding affinity towards Dopamine receptor D2 using [3H]spiperone as radioligand
PROPERTY: Ki (nM)

For orientation, consider the following solved cases.
item_smiles=Fc1ccc(C#CCOCCC2CCN(CCc3ccccc3)CC2)cc1 val=1060
item_smiles=Fc1ccc(CCN2CCC(CCOCC#Cc3ccccc3)CC2)cc1 val=1840
item_smiles=FC(F)(F)c1ccc(/C=C/COCC2CCN(Cc3ccccc3)CC2)cc1 val=4320

1 = c1ccc(CCCOCC2CCN(Cc3ccccc3)CC2)cc1
2 = C(#Cc1ccccc1)COCCC1CCN(CCc2ccccc2)CC1
Prompt: Record comparison, field Ki: mark the lower of 1 and 2 . Kindly state the label of the option you pick.
Completion: 2

P = C(#Cc1ccccc1)COC1CCN(CCc2ccccc2)CC1
Q = C(=C\c1ccccc1)/COCC1CCN(CCc2ccccc2)CC1
Prompt: From the recorded data, which exceeds the other in Ki: P or Q ? The response must carry the label of the picked entry.
Completion: P

---

# TEST_SUMMARY: In vivo potency was determined in anti-mescaline scratch assay(peroral administration)
# Type: functional, organism-based
PROPERTY: ED50

Look over these answered cases.
item_smiles=c1ccc(CCCOCC2CCN(Cc3ccccc3)CC2)cc1 property=ED50 val="> 30 mg/kg"
item_smiles=C/C=C/CN1CCC(COC/C=C/c2ccccc2)CC1 property=ED50 val="> 30 mg/kg"
item_smiles=C(COCC1CCN(Cc2ccccc2)CC1)=C(c1ccccc1)c1ccccc1 property=ED50 val="> 30 mg/kg"
item_smiles=C(#Cc1ccccc1)COCCC1CCN(CC2CC2)CC1 property=ED50 val="> 10 mg/kg"

Prompt: # lookup: ED50 of C(#Cc1ccccc1)COCC1CCN(Cc2ccccc2)CC1
Completion: > 30 mg/kg

Prompt: Another molecule: Fc1ccc(C#CCOCCC2CCN(CCc3ccccc3)CC2)cc1
Completion: > 10 mg/kg

Prompt: Similarly, C(=C\c1ccccc1)/COCC1CCN(Cc2cccc3ccccc23)CC1 ?
Completion: > 10 mg/kg

---

# SYSTEM: D(2) dopamine receptor (Homo sapiens, UniProt P14416)
# Sequence (P14416 whole entry): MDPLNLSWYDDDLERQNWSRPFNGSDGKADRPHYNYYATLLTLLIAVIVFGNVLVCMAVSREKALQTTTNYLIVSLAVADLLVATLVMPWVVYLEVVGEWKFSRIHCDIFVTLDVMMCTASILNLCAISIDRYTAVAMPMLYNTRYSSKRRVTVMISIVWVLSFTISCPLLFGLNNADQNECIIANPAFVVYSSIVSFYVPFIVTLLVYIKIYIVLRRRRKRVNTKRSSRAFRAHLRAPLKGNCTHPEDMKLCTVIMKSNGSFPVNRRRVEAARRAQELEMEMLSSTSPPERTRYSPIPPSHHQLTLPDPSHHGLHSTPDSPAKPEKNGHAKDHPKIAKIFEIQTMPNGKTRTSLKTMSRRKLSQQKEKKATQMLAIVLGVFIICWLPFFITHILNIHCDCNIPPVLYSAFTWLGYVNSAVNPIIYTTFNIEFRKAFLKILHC
# TEST_SUMMARY: Binding affinity towards Dopamine receptor D2 using [3H]spiperone as radioligand
PROPERTY: Ki

// known answers, use as guide
item_smiles=C(/C=C/c1ccccc1)=C\OCC1CCN(Cc2ccccc2)CC1 val="> 10 µM"
item_smiles=C(=C\c1ccccc1)/COCC1CCN(Cc2ccccc2)CC1 val="> 10 µM"
item_smiles=C(=C/c1ccccc1)/COCC1CCN(Cc2ccccc2)CC1 val="> 10 µM"

Prompt: Record Fc1ccc(/C=C/COCC2CCN(Cc3ccccc3)CC2)cc1 : what is its Ki with D(2) dopamine receptor (Homo sapiens, UniProt P14416)?
Completion: 2.18 µM

Prompt: Another compound to look at: C(#Cc1ccccc1)COCC1CCN(Cc2ccccc2)CC1
Completion: > 10 µM

Prompt: Okay, and C(=C\c1ccccc1)/COCC1CCN(Cc2cccc3ccccc23)CC1 ?
Completion: > 10 µM

Prompt: What would you report for C(COCC1CCN(Cc2ccccc2)CC1)=C(c1ccccc1)c1ccccc1 ?
Completion: 0.62 µM

Prompt: Another compound to check: C(=C\c1ccccc1)/COCC1CCN(CCCc2ccccc2)CC1
Completion: 0.948 µM

Prompt: Record: C(=C\c1ccccc1)/COCC1CCN(CC2CC2)CC1
Completion: > 10 µM

Prompt: Ok, now C/C=C/CN1CCC(COC/C=C/c2ccccc2)CC1
Completion: > 10 µM

Prompt: What do we get for C(#Cc1ccccc1)COCCC1CCN(CC2CC2)CC1 ?
Completion: > 10 µM
